Source of measurements: PubChem BioAssay AID1963835

Recorded measurements of viability, T/C, one per entry
Test system: 699152-130-R-J1-PDC complex spheroid viability
Test: Anticancer human tumor 699152-130-R-J1-PDC patient-derived pancreatic carcinoma cell line growth inhibition [POLQ]
Details: second compound 0.0316 µM; first compound 10 µM; stronger effect = lower value

Worked cases, answers included:
[[record]]
compound = "O=C(c1cc(Cc2n[nH]c(=O)c3ccccc23)ccc1F)N1CCN(C(=O)C2CC2)CC1 + Cc1cccc(N(C)C(=O)C2C(O)CCN2c2nc(C)cc(C(F)(F)F)c2C#N)c1"
measurement = "69.6%"

[[record]]
compound = "CC1COCCN1c1cc(C2(S(C)(=N)=O)CC2)nc(-c2ccnc3[nH]ccc23)n1 (stereo unspecified) + COC1C(OC(N)=O)C(O)C(Oc2ccc3c(O)c(NC(=O)c4ccc(O)c(CC=C(C)C)c4)c(=O)oc3c2C)OC1(C)C"
measurement = "69.3%"

[[record]]
compound = "COc1ccc([C@@H](O)c2cc(-c3ncnc4cc(N5CCOCC5)ccc34)c(F)cc2Cl)nn1 + Nc1ccc(C#CCN(C(=O)Cc2ncc(C(F)(F)F)cc2C(F)(F)F)c2ccc(F)cc2)nn1"
measurement = "19.2%"


// fetch viability, T/C given entry CCc1cc2c(N3CCc4c(cc(Cn5ccnc5)cc4-c4cn(C)nc4C(F)(F)F)C3=O)cc(C)nc2c(OC)n1 + Cc1cccc(N(C)C(=O)C2C(O)CCN2c2nc(C)cc(C(F)(F)F)c2C#N)c1
102%

// fetch viability, T/C given entry O=C(Nc1ccc(O)c(NS(=O)(=O)c2ccc(F)cc2)c1)c1ccc(-c2ccccc2)cc1 + Nc1ccc(C#CCN(C(=O)Cc2ncc(C(F)(F)F)cc2C(F)(F)F)c2ccc(F)cc2)nn1
62.8%

// fetch viability, T/C given entry COc1cc2cc(C(=O)CCC(=O)O)sc2cc1OC + COC1C(OC(N)=O)C(O)C(Oc2ccc3c(O)c(NC(=O)c4ccc(O)c(CC=C(C)C)c4)c(=O)oc3c2C)OC1(C)C
103%

###

Tested on: 699152-130-R-J1-PDC complex spheroid viability
Assay: Anticancer human tumor 699152-130-R-J1-PDC cell line growth inhibition [POLQ];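 further: spheroids exposed to agents for 7 days before viability reading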;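 on viability, T/C: percent of DMSO vehicle control viability so 100% = vehicle and 0% = no viable signal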
Details: second compound 0.316 µM; first compound 1 µM; stronger effect = lower value
Recorded measurements of viability, T/C, one per entry
Answer format: numeric, % implied, no suffix.

[[record]]
molecule = "C=CCn1c(=O)c2cnc(Nc3ccc(N4CCN(C)CC4)cc3)nc2n1-c1cccc(C(C)(C)O)n1 + Cc1cccc(N(C)C(=O)C2C(O)CCN2c2nc(C)cc(C(F)(F)F)c2C#N)c1"
measurement = 69.8


// fetch viability, T/C given entry C=CC(=O)N1CCN(c2nc(=O)n(-c3c(C)ccnc3C(C)C)c3nc(-c4c(O)cccc4F)c(F)cc23)C(C)C1 (stereo not drawn) + Cc1cccc(N(C)C(=O)C2C(O)CCN2c2nc(C)cc(C(F)(F)F)c2C#N)c1
103

// fetch viability, T/C given entry Nc1ccn(C2OC(CO)C(O)C2(F)F)c(=O)n1 (stereo not drawn) + COC1C(OC(N)=O)C(O)C(Oc2ccc3c(O)c(NC(=O)c4ccc(O)c(CC=C(C)C)c4)c(=O)oc3c2C)OC1(C)C
44.4

###

Recorded measurements of pIC50, one per entry
Test system: 699152-130-R-J1-PDC complex spheroid viability
Assay: Anticancer human tumor 699152-130-R-J1-PDC cell line growth inhibition [POLQ];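 further: spheroids exposed to agents for 7 days before viability reading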
Conditions: curve of first compound; second compound 1 µM
pIC50: −log10 of the molar value.

[[record]]
compound = "C=CC(=O)N1CCN(c2nc(=O)n(-c3c(C)ccnc3C(C)C)c3nc(-c4c(O)cccc4F)c(F)cc23)C(C)C1 (stereo not drawn) + Cc1cccc(N(C)C(=O)C2C(O)CCN2c2nc(C)cc(C(F)(F)F)c2C#N)c1"
systemname = "699152-130-R-J1-PDC complex spheroid viability"
endpoint = "pIC50"
measurement = "< 5.00"

[[record]]
compound = "Cn1ncnc1[C@H]1c2n[nH]c(=O)c3cc(F)cc(c23)N[C@@H]1c1ccc(F)cc1 + COC1C(OC(N)=O)C(O)C(Oc2ccc3c(O)c(NC(=O)c4ccc(O)c(CC=C(C)C)c4)c(=O)oc3c2C)OC1(C)C"
systemname = "699152-130-R-J1-PDC complex spheroid viability"
endpoint = "pIC50"
measurement = "< 7.00"


// fetch pIC50 given entry CC1COCCN1c1cc(C2(S(C)(=N)=O)CC2)nc(-c2ccnc3[nH]ccc23)n1 (stereo not drawn) + COC1C(OC(N)=O)C(O)C(Oc2ccc3c(O)c(NC(=O)c4ccc(O)c(CC=C(C)C)c4)c(=O)oc3c2C)OC1(C)C
< 5.00
